Exercise: state measured selectivity ratio for each of the molecules provided.
TEST_METHOD_NOTES: Selectivity ratio of MNTD for human RD cells to EC90 for HSV1
Assay type: ADME, cell-based

Ask: Look up selectivity ratio: COC1=C(OC)[C@@H]([C@@H](O)CO)OC1=O
Result: 0.6

Ask: Again, but for CCCCCCCCCCCCCCCC(=O)OC[C@H](O)[C@H]1OC(=O)C(O[C@H]2O[C@H](CO)[C@@H](O)[C@H](O)[C@H]2O)=C1O
Result: 13.9

Ask: Request: O=C1O[C@H]([C@@H](O)CO)C(O)=C1O[C@H]1O[C@H](CO)[C@@H](O)[C@H](O)[C@H]1O
Result: 43.9
